Would you kindly list mAb-1 Binding to the Pre-complex of mAb-2 & hIL-33 for each of these binders?
Biological target: T1, human IL-33 (R&D Systems, #3625-IL-010/CF) (human, UniProt O95760 112-270)
T1 construct: Commercial recombinant protein; also called hIL-33; interleukin-33
T1 sequence (looked up): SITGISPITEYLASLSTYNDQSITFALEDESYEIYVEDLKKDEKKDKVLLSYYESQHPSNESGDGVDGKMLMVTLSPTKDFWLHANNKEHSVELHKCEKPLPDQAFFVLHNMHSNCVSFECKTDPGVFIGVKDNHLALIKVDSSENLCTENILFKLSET
Assay: BLI; hIL-33 pre-mixed with mAb-2 Isotype control 1
Answer format: numeric, nm implied, no suffix.

Please give the measured mAb-1 Binding to the Pre-complex of mAb-2 & hIL-33 for this binder: H4H9662P (antibody, V domains shown, Human IgG4 Fc (H4H)) VH: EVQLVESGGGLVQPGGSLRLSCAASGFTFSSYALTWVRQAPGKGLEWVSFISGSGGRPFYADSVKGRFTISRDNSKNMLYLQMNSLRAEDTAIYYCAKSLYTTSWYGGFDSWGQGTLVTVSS VL: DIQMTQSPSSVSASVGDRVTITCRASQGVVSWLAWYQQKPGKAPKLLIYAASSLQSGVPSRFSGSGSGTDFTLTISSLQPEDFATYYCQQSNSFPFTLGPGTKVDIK
0.19

Give its mAb-1 Binding to the Pre-complex of mAb-2 & hIL-33 value. Item: H4H9633P (antibody, human IgG4, V domains shown, Human IgG4 Fc (H4H)) VH: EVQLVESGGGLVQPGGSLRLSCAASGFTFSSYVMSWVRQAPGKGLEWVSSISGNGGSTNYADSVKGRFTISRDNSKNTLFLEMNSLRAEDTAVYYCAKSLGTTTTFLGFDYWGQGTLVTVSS VL: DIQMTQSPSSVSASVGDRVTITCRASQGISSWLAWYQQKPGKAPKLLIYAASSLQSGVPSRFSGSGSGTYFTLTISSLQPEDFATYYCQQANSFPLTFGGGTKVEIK
0.21

For the binder H4H9664P (antibody, human IgG4, V domains shown, Human IgG4 Fc (H4H)) VH: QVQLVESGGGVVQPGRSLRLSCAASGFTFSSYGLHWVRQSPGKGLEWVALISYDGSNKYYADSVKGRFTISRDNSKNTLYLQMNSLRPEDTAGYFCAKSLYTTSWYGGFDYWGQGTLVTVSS VL: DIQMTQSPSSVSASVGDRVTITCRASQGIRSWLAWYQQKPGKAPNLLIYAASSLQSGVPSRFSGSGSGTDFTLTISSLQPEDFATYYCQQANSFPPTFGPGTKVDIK , what mAb-1 Binding to the Pre-complex of mAb-2 & hIL-33 is on record?
0.16

Hey, just so you know, these numbers are from patent US20160362487A1.
